# studySystem: Bcl-xL (Homo sapiens (Human))
# Sequence (Q07817 whole entry): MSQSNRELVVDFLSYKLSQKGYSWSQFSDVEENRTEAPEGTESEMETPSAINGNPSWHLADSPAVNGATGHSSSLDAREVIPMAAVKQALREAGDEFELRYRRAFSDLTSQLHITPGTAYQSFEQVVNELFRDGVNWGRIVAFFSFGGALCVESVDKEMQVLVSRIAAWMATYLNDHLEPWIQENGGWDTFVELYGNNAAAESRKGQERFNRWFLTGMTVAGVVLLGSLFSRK
IC50 strictly under 10 nM means criterion met; at 10 nM or over means criterion not met.

- smilesRepresentation: "O=C(NS(=O)(=O)c1cc([N+](=O)[O-])c2[nH]c(C3CC3)nc2c1)c1ccc(N2CCN(CC3=C(c4ccc(Cl)cc4)CC4(CCC4)CC3)CC2)cc1Oc1cnc2[nH]ccc2c1"
  groupLabel: "criterion not met"
- smilesRepresentation: "O=C(NS(=O)(=O)c1cc([N+](=O)[O-])c2cn(CC3CCOCC3)nc2c1)c1ccc(N2CCN(CC3=C(c4ccc(Cl)cc4)CC4(CCC4)CC3)CC2)cc1Oc1cnc2[nH]ccc2c1"
  groupLabel: "criterion met"
- smilesRepresentation: "O=C(NS(=O)(=O)c1ccc(NCC2CCOCC2)c([N+](=O)[O-])c1)c1ccc(N2CCN(CC3=C(c4ccc(Cl)cc4)CC4(CC3)COC4)CC2)cc1Oc1cnc2[nH]ccc2c1"
  groupLabel: "criterion not met"
- smilesRepresentation: "CN(C)c1ccc(S(=O)(=O)NC(=O)c2ccc(N3CCN(CC4=C(c5ccc(Cl)cc5)CC5(CCC5)CC4)CC3)cc2Oc2cnc3[nH]ccc3c2)cc1[N+](=O)[O-]"
  groupLabel: "criterion not met"
- smilesRepresentation: "O=C(NS(=O)(=O)c1ccc(NCC2CCOCC2)c([N+](=O)[O-])c1)c1ccc(N2CCN(CC3=C(c4ccc(Cl)cc4)CC4(CCC4)CC3)CC2)cc1Oc1cnc2[nH]ccc2c1"
  groupLabel: "criterion not met"
- smilesRepresentation: "O=C(NS(=O)(=O)c1cc([N+](=O)[O-])c2nn(CC3CCOCC3)cc2c1)c1ccc(N2CCN(CC3=C(c4ccc(Cl)cc4)CC4(CCC4)CC3)CC2)cc1Oc1cnc2[nH]ccc2c1"
  groupLabel: "criterion not met"
- smilesRepresentation: "O=C(NS(=O)(=O)c1ccc(NCC2CCOCC2)c([N+](=O)[O-])c1)c1ccc(C2=CCN(CC3=C(c4ccc(Cl)cc4)CC4(CCC4)CC3)CC2)cc1Oc1cnc2[nH]ccc2c1"
  groupLabel: "criterion not met"
- smilesRepresentation: "CNc1ccc(S(=O)(=O)NC(=O)c2ccc(N3CCN(CC4=C(c5ccc(Cl)cc5)CC5(CCC5)CC4)CC3)cc2Oc2cnc3[nH]ccc3c2)cc1[N+](=O)[O-]"
  groupLabel: "criterion not met"
- smilesRepresentation: "O=C(NS(=O)(=O)c1cc([N+](=O)[O-])c2c(cnn2CC2CCOCC2)c1)c1ccc(N2CCN(CC3=C(c4ccc(Cl)cc4)CC4(CCC4)CC3)CC2)cc1Oc1cnc2[nH]ccc2c1"
  groupLabel: "criterion not met"
- smilesRepresentation: "CC(C)c1nc2cc(S(=O)(=O)NC(=O)c3ccc(N4CCN(CC5=C(c6ccc(Cl)cc6)CC6(CCC6)CC5)CC4)cc3Oc3cnc4[nH]ccc4c3)cc([N+](=O)[O-])c2[nH]1"
  groupLabel: "criterion not met"
- smilesRepresentation: "O=C(NS(=O)(=O)c1cccc([N+](=O)[O-])c1)c1ccc(N2CCN(CC3=C(c4ccc(Cl)cc4)CC4(CCC4)CC3)CC2)cc1Oc1cnc2[nH]ccc2c1"
  groupLabel: "criterion met"
